Measured on: CB2 receptor (Homo sapiens)
Construct: transiently transfected with full-length human recombinant cDNA (OriGene, Rockville, MD, USA); host or cells: HEK293
Sequence (P34972 whole entry): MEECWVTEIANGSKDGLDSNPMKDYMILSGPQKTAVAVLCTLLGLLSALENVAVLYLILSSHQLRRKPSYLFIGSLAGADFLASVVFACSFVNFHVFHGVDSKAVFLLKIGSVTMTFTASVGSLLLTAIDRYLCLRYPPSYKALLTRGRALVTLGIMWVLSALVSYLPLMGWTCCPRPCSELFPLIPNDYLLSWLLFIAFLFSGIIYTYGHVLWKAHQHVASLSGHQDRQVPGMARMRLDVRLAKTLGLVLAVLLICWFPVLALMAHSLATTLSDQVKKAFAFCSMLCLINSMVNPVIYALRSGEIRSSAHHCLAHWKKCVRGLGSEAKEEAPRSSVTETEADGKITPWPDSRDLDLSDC
Assay details: Competitive [3H]-CP55,940 radioligand binding assay, CB2
Run parameters: Table S1 preliminary screening; 10 μM
Endpoint label: % displacement at 10 μM CB2
Could you kindly put the unit after your number?

Worked cases, % displacement at 10 μM CB2 given:
Compound | Endpoint label | Reported measurement
COC(=O)c1ccc(C=C2Oc3c(ccc(O)c3CN(CC(C)C)CC(C)C)C2=O)cc1 | % displacement at 10 μM CB2 | 35%
CN(Cc1ccccc1)Cc1c(O)ccc2c1OC(=Cc1cn(C)c3ccccc13)C2=O | % displacement at 10 μM CB2 | 61.2%
COc1cc(C)cc2oc(=O)c(CC(=O)N[C@@H](CSCc3ccccc3)C(=O)O)c(C)c12 | % displacement at 10 μM CB2 | 15.5%
COc1ccc2c(ccn2CCC(=O)N[C@@H](Cc2c[nH]c3ccccc23)C(=O)O)c1 | % displacement at 10 μM CB2 | 17.3%
COc1ccc(-n2cc(C(=O)O)c3c2C(c2ccc(O)c(OC)c2)CC(=O)N3)cc1 (stereo not shown) | % displacement at 10 μM CB2 | 13.1%
Cc1noc(-c2ccc(O)cc2O)c1-c1ccc(Br)cc1 | % displacement at 10 μM CB2 | 40.2%
O=c1[nH]n(C2CCCCCC2)c2nc3c(oc4c(O)c(O)ccc43)c(-c3ccc(O)cc3)c12 | % displacement at 10 μM CB2 | 37.4%
COc1ccc2[nH]c3c(c2c1)CCNC3c1c(O)n(CCc2ccccc2)c(=S)[nH]c1=O (stereo not shown) | % displacement at 10 μM CB2 | 15.7%

Prompt: Given the entry COC(=O)CC(c1ccc(O)cc1)c1oc(CSc2ccccc2)cc(=O)c1O (stereo not shown) , report its measured % displacement at 10 μM CB2.
Response: 30%

Prompt: Quick one: `COc1ccc2[nH]c3c(c2c1)CCN1C(=O)CN(CCc2c[nH]c4ccccc24)C(=O)[C@]31C`
Response: 67.2%

Prompt: Quick one: `O=C(COc1cc(O)c2c(=O)cc(-c3ccccc3)oc2c1)NCCCN1CCCC1=O`
Response: 30.2%

Prompt: Quick one: `Cc1ccc(COc2ccc(-c3nc(N)ncc3Oc3ccccc3Br)c(O)c2)cc1`
Response: 35.5%

Prompt: Quick one: `Cc1cc(O)c2c(C)c(CC(=O)N[C@@H](CSCc3ccccc3)C(=O)O)c(=O)oc2c1`
Response: 26.7%

----------
Measured on: CB2 receptor (Homo sapiens)
Construct: transiently transfected with full-length human recombinant cDNA (OriGene, Rockville, MD, USA); host or cells: HEK293
Assay details: Competitive [3H]-CP55,940 radioligand binding assay, CB2
Run parameters: Table 1; superscript a = up to solubility limit; read-out: IC50 ± SEM CB2
Endpoint label: IC50 (µM)
Express your answer in µM, writing the number without its unit.

Smiles string | IC50 / µM
COc1ccc2[nH]c3c(c2c1)CCN1C(=O)CN(CCc2c[nH]c4ccccc24)C(=O)[C@]31C | 3.25

# context switch: different molecule, same IC50
Prompt: Given the entry `CN(Cc1ccccc1)Cc1c(O)ccc2c1OC(=Cc1cn(C)c3ccccc13)C2=O` , report its measured IC50.
Response: 0.101

----------
Measured on: CB1 receptor (Homo sapiens)
Construct: transiently transfected with full-length human recombinant cDNA (OriGene, Rockville, MD, USA); host or cells: HEK293
Assay details: Competitive [3H]-CP55,940 radioligand binding assay, CB1
Run parameters: 16 rescreened, data from Figure 4; up to solubility limit; read-out: IC50 ± SEM CB1 (rescreen)
Endpoint label: IC50 (nM)
Express your answer in nM, writing the number without its unit.

Prompt: Given the entry `Cc1noc(-c2ccc(O)cc2O)c1-c1ccc(Br)cc1` , report its measured IC50.
Response: 242

----------
Measured on: CB1 receptor (Homo sapiens, UniProt P21554)
Construct: transiently transfected with full-length human recombinant cDNA (OriGene, Rockville, MD, USA); host or cells: HEK293
Sequence (P21554 whole entry): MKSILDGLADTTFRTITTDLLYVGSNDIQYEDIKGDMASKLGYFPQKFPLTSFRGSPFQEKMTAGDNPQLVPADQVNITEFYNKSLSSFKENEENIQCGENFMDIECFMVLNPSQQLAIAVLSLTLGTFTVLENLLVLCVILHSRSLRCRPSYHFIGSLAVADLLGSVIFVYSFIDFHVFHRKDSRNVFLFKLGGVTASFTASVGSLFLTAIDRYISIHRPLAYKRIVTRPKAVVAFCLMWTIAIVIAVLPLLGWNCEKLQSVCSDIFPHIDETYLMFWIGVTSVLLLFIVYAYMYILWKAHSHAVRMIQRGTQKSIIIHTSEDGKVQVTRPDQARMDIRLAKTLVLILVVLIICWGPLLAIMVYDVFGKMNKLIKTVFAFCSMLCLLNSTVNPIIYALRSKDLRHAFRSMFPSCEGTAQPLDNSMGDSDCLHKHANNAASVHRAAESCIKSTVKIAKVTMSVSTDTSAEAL
Assay details: Competitive [3H]-CP55,940 radioligand binding assay, CB1
Run parameters: 16 rescreened, data from Figure 4; up to solubility limit; read-out: Ki ± SEM CB1 (rescreen)
Experimental: HEK293 cells were collected and transiently transfected with full-length human recombinant cDNA (OriGene, Rockville, MD, USA) containing expression clones to generate separate cell lines expressing either the CB1 or CB2 receptors (50 µg/mL) using electroporation (70 ms, single pulse, 150 volts). […] Competitive binding assays were performed with a modified rapid filtration assay described by Ma et al. (2007) and Felder et al. (1992). […] Filter bound radioactivity was recorded in counts per minute (CPM). […]
Endpoint label: pKi
# pKi is unitless: minus log10 of the molar concentration; print number only

Prompt: Given the entry `Cc1noc(-c2ccc(O)cc2O)c1-c1ccc(Br)cc1` , report its measured pKi.
Response: 6.92

----------
Measured on: CB1 receptor (Homo sapiens, UniProt P21554)
Construct: transiently transfected with full-length human recombinant cDNA (OriGene, Rockville, MD, USA); host or cells: HEK293
Assay details: Competitive [3H]-CP55,940 radioligand binding assay, CB1
Run parameters: rescreen experiment, value printed in picture; read-out: CB1 Receptor Binding Ki (printed in Figure 4)
Endpoint label: pKi
# pKi is unitless: minus log10 of the molar concentration; print number only

Prompt: Given the entry Cc1noc(-c2ccc(O)cc2O)c1-c1ccc(Br)cc1 [Compound 16] , report its measured pKi.
Response: 6.92

----------
Measured on: CB1 receptor (Homo sapiens)
Construct: transiently transfected with full-length human recombinant cDNA (OriGene, Rockville, MD, USA); host or cells: HEK293
Assay details: Competitive [3H]-CP55,940 radioligand binding assay, CB1
Run parameters: Table S1 preliminary screening; 10 μM
Endpoint label: % displacement at 10 μM CB1 (%)
Express your answer in %, writing the number without its unit.

Worked cases, % displacement at 10 μM CB1 given:
Compound | Endpoint label | Reported measurement
O=C(O)C(Cc1ccccc1)NCc1c(O)ccc2c(-c3ccccc3)cc(=O)oc12 (stereo not shown) | % displacement at 10 μM CB1 | 14.1
Cc1noc(-c2ccc(O)cc2O)c1-c1ccc(Br)cc1 | % displacement at 10 μM CB1 | 61.8
Cc1cc(O)c2c(C)c(CC(=O)N[C@@H](CSCc3ccccc3)C(=O)O)c(=O)oc2c1 | % displacement at 10 μM CB1 | 28
O=c1[nH]n(C2CCCCCC2)c2nc3c(oc4c(O)c(O)ccc43)c(-c3ccc(O)cc3)c12 | % displacement at 10 μM CB1 | 23.1
CN(Cc1ccccc1)Cc1c(O)ccc2c1OC(=Cc1cn(C)c3ccccc13)C2=O | % displacement at 10 μM CB1 | 69
COc1ccccc1NC(=O)C1CC(O)CN1C(=O)OCc1ccccc1 (stereo not shown) | % displacement at 10 μM CB1 | 13.9

Prompt: Given the entry `O=C(COc1cc(O)c2c(=O)cc(-c3ccccc3)oc2c1)NCCCN1CCCC1=O` , report its measured % displacement at 10 μM CB1.
Response: 28.6

Prompt: Quick one: COC(=O)CC(c1ccc(O)cc1)c1oc(CSc2ccccc2)cc(=O)c1O (stereo not shown)
Response: 18.7

Prompt: Quick one: `COc1ccc2c(ccn2CCC(=O)N[C@@H](Cc2c[nH]c3ccccc23)C(=O)O)c1`
Response: 30.2

Prompt: Quick one: `COc1ccc2[nH]c3c(c2c1)CCN1C(=O)CN(CCc2c[nH]c4ccccc24)C(=O)[C@]31C`
Response: 81.8

Prompt: Quick one: `COc1cc(C)cc2oc(=O)c(CC(=O)N[C@@H](CSCc3ccccc3)C(=O)O)c(C)c12`
Response: 14

Prompt: Quick one: COc1ccc(-n2cc(C(=O)O)c3c2C(c2ccc(O)c(OC)c2)CC(=O)N3)cc1 (stereo not shown)
Response: 37.6
